# System: K562 CRISPRi cells
# Protocol Description: Constant region variant library pooled growth screen, K562
# Assay type: cell-based, human
# Measurement Context: sgRNA constant region variants; activity relative to the original, un-modified constant region cr995
Recorded Mean relative activity split into classes Low (below 0.04), Mid (0.04 to below 0.7), High (0.7 or more)

{"columns": ["Molecule", "Discrete Label"],
 "data": [
  ["cr960 (nucleic acid, listed as DNA, chemistry not fully specified) guide: GTTTAAGAGCTAAGCTGGAAACAGCATAGCAAGTTTAAATAAGGCTAGTCCGTTATCATATTGAAAAATAGGCACCGAGTCGGTGCT", "High"],
  ["cr791 (nucleic acid, listed as DNA, chemistry not fully specified) guide: GTTTAAGAGCTAAGCTGGAAACAGCATAGCAAGTTTAAATAAAGCTAGTCTGTTATCAACTTGAAAAAGTGGCACCCAGTGGGTGCT", "Mid"],
  ["cr629 (nucleic acid, listed as DNA, chemistry not fully specified) guide: GTTTAAGAGCTAAGCTGGAAACAGCATAGCAACTTTAAATAAGGCTAGTCCGTTATCAAATTGAAAAATTGGCACCGAGTCGGTGCT", "Low"],
  ["cr766 (nucleic acid, listed as DNA, chemistry not fully specified) guide: GTTTAAGAGCTAAGCTGGAAACAGCATAGCAAGTTTAAATAAGGCTAGTCCGTTATCAACATGAAAATGTGGCACCGAGTCGGTGCT", "High"],
  ["cr319 (nucleic acid, listed as DNA, chemistry not fully specified) guide: GTTTAAGAGCTAAGCTGGAAACAGCATAGCAAGTTTAAATAGGGCTAGTCCGTTATCAACTTGAGAAAGTGGCACCGAGTCGGTGCT", "High"],
  ["cr784 (nucleic acid, listed as DNA, chemistry not fully specified) guide: GTTTAAGAGCTAAGCTGGAAACAGCATAGCAAGTTTAAATAATCCTAGTTCGTTATCAACTTGAAAAAGTGGCACCGAGTCGGTGCT", "Low"],
  ["cr652 (nucleic acid, listed as DNA, chemistry not fully specified) guide: GTTTAAGAGCTAAGCTGGAAACAGCATCGCAAGTTTAAATAAGGCTAGTCCGGTATCAACTTGGAAAAGTGGCACCGAGTCGGTGCT", "High"],
  ["cr441 (nucleic acid, listed as DNA, chemistry not fully specified) guide: GTTTAAGAGCTAAGCTGGAAACAGCATAGCAAGTTTAAATAAGGCTAGTCCGTTATAAACTTGAAAAAGTGGCACCGAGTCGGTGCT", "Mid"],
  ["cr803 (nucleic acid, listed as DNA, chemistry not fully specified) guide: GTTTAAGAGCTAAGCTGGAAACAGCATAGCAAGTTTAAATAAGGATATTCCGTTATCAACTTGAGAAAGTGGCACCGAGTCGGTGCT", "Mid"],
  ["cr096 (nucleic acid, listed as DNA, chemistry not fully specified) guide: GTTTGTGAGCTAAGCTGGAAACAGCATAGCAAGTTTAAATAAGGCTAGTCCGTTATCAACTTGAAAAAGTGGCACCGAGTCGGTGCT", "Low"],
  ["cr716 (nucleic acid, listed as DNA, chemistry not fully specified) guide: GTTTAAGAGCTAAGCTGGAAACAGCATAGCCATTTTAAATAAGGCTAGTCCGTTATCAACTTGAAAAAGTGGCACCGAGTCGGTGCT", "Low"],
  ["cr325 (nucleic acid, listed as DNA, chemistry not fully specified) guide: GTTTAAGAGCTAAGCTGGAAACAGCATAGCAACTTTAAATAAGGCTAGTCCGTTATCAGCTTGAAAAAGCGGCACCGAGTCGGTGCT", "Mid"]
]}
